Target: Tyrosine-protein kinase ZAP-70 (Homo sapiens) (UniProt P43403)
Sequence (P43403 whole entry): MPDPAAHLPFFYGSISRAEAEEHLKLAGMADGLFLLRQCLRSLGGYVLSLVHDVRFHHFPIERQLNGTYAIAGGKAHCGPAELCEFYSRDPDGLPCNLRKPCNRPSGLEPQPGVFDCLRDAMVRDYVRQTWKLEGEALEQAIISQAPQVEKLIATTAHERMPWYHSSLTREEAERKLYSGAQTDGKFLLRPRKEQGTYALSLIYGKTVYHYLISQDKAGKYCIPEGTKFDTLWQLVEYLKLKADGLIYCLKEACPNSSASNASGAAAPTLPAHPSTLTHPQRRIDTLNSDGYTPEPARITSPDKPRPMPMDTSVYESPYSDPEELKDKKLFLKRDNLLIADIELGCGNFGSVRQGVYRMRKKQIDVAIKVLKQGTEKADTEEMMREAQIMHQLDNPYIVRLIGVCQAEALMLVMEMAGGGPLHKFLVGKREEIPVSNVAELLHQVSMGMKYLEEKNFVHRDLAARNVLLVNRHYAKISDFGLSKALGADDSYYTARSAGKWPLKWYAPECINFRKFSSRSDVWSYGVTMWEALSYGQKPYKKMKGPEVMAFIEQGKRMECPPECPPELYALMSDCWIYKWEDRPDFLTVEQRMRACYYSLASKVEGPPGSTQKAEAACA
Conditions: at 1 µM
Description: GSK_PKIS: ZAP70 mean inhibition at 1 uM [Nanosyn]
Hi there, I'd appreciate the recorded inhibition for every entry that follows.

Look up inhibition for this compound: FC(F)(F)c1cccc(-c2nn3ncccc3c2-c2ccnc(Nc3ccc4c(c3)OCCO4)n2)c1
3.05%

What about COC(=O)Nc1nc2ccc(S(=O)(=O)c3ccc(NC(=O)Nc4cc(C(F)(F)F)ccc4F)cc3)cc2[nH]1 ?
3.21%

Follow-up item: CC(=O)Nc1cccc(C#Cc2cncnc2Nc2ccc(OCc3cccc(F)c3)c(Cl)c2)c1
6.95%

And for Cc1ccc(O)cc1Nc1ccnc2cc(-c3ccccn3)ccc12 ?
4.03%

* * *

Biological target: Proto-oncogene tyrosine-protein kinase ROS (Homo sapiens)
Details: at 0.1 µM
Description: GSK_PKIS: ROS mean inhibition at 0.1 uM [Nanosyn]
# label = true if inhibition >= 2% else false

Threshold query (inhibition >= 2%) on Cc1cccc2c1NC(=O)/C2=N\Nc1ccc(S(N)(=O)=O)cc1
true

Note, next up: COc1cc2ncn(-c3cc(OCc4ccccc4C(F)(F)F)c(C(=O)N(C)C)s3)c2cc1OC
false

// repeat for CC(C)COC(=O)c1ccc2c(c1)/C(=C/Nc1ccc(S(N)(=O)=O)cc1)C(=O)N2 and report
false

Lookup FC(F)(F)c1cccc(-c2nn3ncccc3c2-c2ccnc(Nc3ccc4c(c3)OCCO4)n2)c1
false

Also need Cc1ccc(O)cc1Nc1ccnc2cc(-c3ccccn3)ccc12 , thanks.
true

* * *

Assign inhibition to each entry below.
Target: Tyrosine-protein kinase BTK (Homo sapiens) (UniProt Q06187);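 note: values are averaged percent inhibition of BTK enzyme activity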
Sequence (Q06187 whole entry): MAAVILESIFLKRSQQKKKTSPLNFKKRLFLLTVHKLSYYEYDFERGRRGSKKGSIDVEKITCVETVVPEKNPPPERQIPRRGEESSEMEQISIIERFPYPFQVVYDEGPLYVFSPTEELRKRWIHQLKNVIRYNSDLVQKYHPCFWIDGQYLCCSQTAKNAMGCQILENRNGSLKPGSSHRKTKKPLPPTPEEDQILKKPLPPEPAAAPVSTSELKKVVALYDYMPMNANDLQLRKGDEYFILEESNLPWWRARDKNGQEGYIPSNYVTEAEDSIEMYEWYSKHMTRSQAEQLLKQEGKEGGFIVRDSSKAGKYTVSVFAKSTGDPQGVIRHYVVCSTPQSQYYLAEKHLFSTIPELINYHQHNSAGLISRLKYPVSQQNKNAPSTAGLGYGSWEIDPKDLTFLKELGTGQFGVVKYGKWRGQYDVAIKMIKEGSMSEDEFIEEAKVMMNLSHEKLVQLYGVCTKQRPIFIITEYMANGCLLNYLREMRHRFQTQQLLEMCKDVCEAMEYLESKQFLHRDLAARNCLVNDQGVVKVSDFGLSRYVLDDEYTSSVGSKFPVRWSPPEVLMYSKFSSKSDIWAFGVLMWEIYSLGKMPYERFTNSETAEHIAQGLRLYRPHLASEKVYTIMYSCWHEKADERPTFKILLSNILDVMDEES
Conditions: at 0.1 µM
Express the result in % but write the number alone.

GET /values?readout=inhibition&item= CCN1CCC(CC(=O)Nc2n[nH]c3nnc(-c4cccc(F)c4F)cc23)CC1
0.54

Entry CC(=O)NCc1cccc(C#Cc2cncnc2Nc2ccc(OCc3cccc(F)c3)c(Cl)c2)c1 please
-1.42

Let us now turn to COc1ccc(-c2cc(-c3c[nH]nc3-c3ccccn3)ccn2)cc1
2.09

Would you kindly repeat that for CC1=C(C(=O)Nc2cc(Cl)c3[nH]ncc3c2)C(c2ccc(C(F)(F)F)cc2)CC(=O)N1 (stereo not drawn) ?
-0.51

Now try COc1cccc(-c2c[nH]c3c(N/N=C/c4ccncc4)ncnc23)c1 .
0.88

Proceed to Nc1nc(-c2cccc(Cl)c2)c(-c2ccc3ncccc3n2)s1
0.83

Next compound: COC(=O)c1sc(-n2cnc3cc(OC)c(OC)cc32)cc1OCc1ccccc1C(F)(F)F
-0.65

Now the same for NS(=O)(=O)c1ccc(Nc2ncc(-c3ccccc3)o2)cc1
0

Try this compound next: CCOc1ccc2c(-c3ccnc(Nc4cccc(C(F)(F)F)c4)n3)cnn2n1
0.07

Entry NS(=O)(=O)c1ccc(N/N=C2\C(=O)Nc3ccc4ncccc4c32)cc1 please
1.8

Please give the result for COC(=O)Nc1nc2ccc(S(=O)(=O)c3ccc(NC(=O)Nc4cc(C(F)(F)F)ccc4F)cc3)cc2[nH]1 too.
1.86

Further, for CCn1c(-c2nonc2N)nc2ccccc21 ?
1.6

Quick one: Nc1ncc(-c2cccc(S(N)(=O)=O)c2)c2scc(-c3ccc(F)c(Cl)c3)c12
3.15

How about CC(C)(CO)CNC(=O)c1ccc2c(c1)/C(=N/Nc1ccc(S(N)(=O)=O)cc1)C(=O)N2 ?
0.27

Cool, now Fc1ccc(-c2nn3ncccc3c2-c2ccnc(Nc3ccc4c(c3)OCCO4)n2)cc1
-1.09

Next record, please: CCN(CC)S(=O)(=O)c1ccc(OC)c(Nc2ncc(-c3ccccc3)o2)c1
2.59

Try this compound next: O=C(O[C@H]1CN[C@H](C#Cc2cc3ncnc(Nc4ccc(Cc5ccccc5)cc4)c3s2)C1)N1CCOCC1
-0.44

// same read-out, input: NC(=O)c1sc(-n2cnc3ccc(C(F)(F)F)cc32)cc1OCc1ccccc1Br
-0.59

Ref: ChEMBL document CHEMBL1961873
